System: patients of the CATIE study (schizophrenia)
Assay: CATIE trial: change in PANSS score (delta PANSS, LOCF) for subjects stratified by GARP genetic signature status
Type: in vivo, human
Details: GARP-4 negative subjects; LOCF; CATIE Phases 1-2
From the text: The CATIE study, a large federally funded clinical trial designed to assess the efficacy of antipsychotics in a real world setting, is a valuable resource for determining the role of genes in baseline psychopathology and drug response (Lieberman et al., 2005; Stroup et al., 2003). […] Using the clinical data from the CATIE trial, the inventors derived several different metrics used for quantifying response in clinical trials of antipsychotic medications. […]
Provide the recorded Delta PANSS, Mean, GARP-4 negative for the entries that follow.
Numbers only.

// each listed compound needs a value for Delta PANSS, Mean, GARP-4 negative
1. Cc1nc2n(c(=O)c1CCN1CCC(c3noc4cc(F)ccc34)CC1)CCCC2 [Risperidone, risperidone]
2. Cc1cc2c(s1)Nc1ccccc1N=C2N1CCN(C)CC1 [Olanzapine, olanzapine]
3. CN1CCN(C2=Nc3cc(Cl)ccc3Nc3ccccc32)CC1 [Clozapine, clozapine]
4. O=C1Cc2cc(CCN3CCN(c4nsc5ccccc45)CC3)c(Cl)cc2N1 [Ziprasidone, ziprasidone]
5. OCCN1CCN(CCCN2c3ccccc3Sc3ccc(Cl)cc32)CC1 [Perphenazine, perphenazine]
6. OCCOCCN1CCN(C2=Nc3ccccc3Sc3ccccc32)CC1 [Quetiapine, quetiapine]

["−5.4", "−9.0", "−13.4", 0.4, "−4.7", "−0.7"]
